Biological target: FBW7^ARG (RLFBW7) alone (Homo sapiens, UniProt Q969H0, R505L)
Construct: GST (TEV site and flexible linker) (N, cleaved yes); made in house; host or cells: SF9 insect cells (baculovirus)
Sequence (Q969H0 64-707 R505L): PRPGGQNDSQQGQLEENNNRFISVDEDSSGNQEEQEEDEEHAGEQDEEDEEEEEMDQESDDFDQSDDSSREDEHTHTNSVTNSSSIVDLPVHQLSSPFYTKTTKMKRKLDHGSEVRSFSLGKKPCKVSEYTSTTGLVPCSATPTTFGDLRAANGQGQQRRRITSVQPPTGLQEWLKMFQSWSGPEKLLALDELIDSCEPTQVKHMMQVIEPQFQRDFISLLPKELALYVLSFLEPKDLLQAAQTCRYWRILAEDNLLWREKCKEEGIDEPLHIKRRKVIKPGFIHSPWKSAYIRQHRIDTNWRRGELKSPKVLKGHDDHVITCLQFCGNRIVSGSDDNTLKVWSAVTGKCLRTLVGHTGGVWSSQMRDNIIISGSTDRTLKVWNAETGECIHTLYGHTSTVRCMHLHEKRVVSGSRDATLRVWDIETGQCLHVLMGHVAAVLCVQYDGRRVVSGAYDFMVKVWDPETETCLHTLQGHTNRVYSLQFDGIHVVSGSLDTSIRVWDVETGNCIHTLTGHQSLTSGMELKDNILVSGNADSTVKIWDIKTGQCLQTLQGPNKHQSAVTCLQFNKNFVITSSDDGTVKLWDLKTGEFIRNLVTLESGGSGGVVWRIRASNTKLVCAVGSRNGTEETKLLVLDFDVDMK
Sequence (P63208 2-163 partner): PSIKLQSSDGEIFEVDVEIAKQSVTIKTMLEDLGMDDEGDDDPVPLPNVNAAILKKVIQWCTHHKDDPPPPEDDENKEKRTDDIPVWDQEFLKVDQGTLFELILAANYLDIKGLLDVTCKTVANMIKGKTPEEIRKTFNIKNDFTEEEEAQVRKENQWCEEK
Test: Counterscreen 1 ALPHAscreen with FBW7^ARG alone (CSRUN1/DCSRUN1)
Type: binding
Conditions: dose-response counterscreen, read-out: RLFBW7 ACT DCSRUN1 Final EC50
Procedure: Studies in 384-well format were performed using the ENVISION system. Reagent concentrations (see FIG. 6A), order of addition, pH (see FIG. 6B), and reducing agent were altered with the goal of enhancing the dynamic range between wt-FBW7 (the positive control) and FBW7^ARG (FIG. 6 and not shown). Wt-FBW7 produced a signal 100× greater with phosphorylated cyclin E degron peptide compared with unphosphorylated, which represents the assay's maximum range (FIG. 6C). […]
pEC50: −log10 of the molar value.
ENDPOINT: pEC50

1) COc1cccc(/C=N/c2ccc3[nH]ncc3c2)c1O [SR-01000359514-1]; < 4.19
2) CCS(=O)(=O)NCC(c1cccs1)S(=O)(=O)c1ccc(C)cc1 (centres unmarked) [SR-01000023127-1]; < 4.18
3) CC(=O)Nc1ccc(NC(=O)Cn2cnc3c(cnn3C(C)(C)C)c2=O)cc1 [SR-01000137195-1]; < 4.19
4) COc1ccc(OC)c(/C=C2/N=C(c3cccc([N+](=O)[O-])c3)OC2=O)c1 [SR-01000414795-1]; < 4.23

Next:
Noted for COc1ccc(NC(=O)c2cc(S(=O)(=O)N3CCN(c4ccccn4)CC3)ccc2F)cc1 [SR-01000579121-1] : its pEC50 reads < 4.26
